Cited source for all entries: patent US20240092773A1

- Experimental Target: IgE-Tb binding to soluble IgE receptor FcεR1α (Y131A mutation) (Homo sapiens, UniProt P01854, N146Q/N252Q)
- Sequence (P01854 whole entry N146Q/N252Q, looked up): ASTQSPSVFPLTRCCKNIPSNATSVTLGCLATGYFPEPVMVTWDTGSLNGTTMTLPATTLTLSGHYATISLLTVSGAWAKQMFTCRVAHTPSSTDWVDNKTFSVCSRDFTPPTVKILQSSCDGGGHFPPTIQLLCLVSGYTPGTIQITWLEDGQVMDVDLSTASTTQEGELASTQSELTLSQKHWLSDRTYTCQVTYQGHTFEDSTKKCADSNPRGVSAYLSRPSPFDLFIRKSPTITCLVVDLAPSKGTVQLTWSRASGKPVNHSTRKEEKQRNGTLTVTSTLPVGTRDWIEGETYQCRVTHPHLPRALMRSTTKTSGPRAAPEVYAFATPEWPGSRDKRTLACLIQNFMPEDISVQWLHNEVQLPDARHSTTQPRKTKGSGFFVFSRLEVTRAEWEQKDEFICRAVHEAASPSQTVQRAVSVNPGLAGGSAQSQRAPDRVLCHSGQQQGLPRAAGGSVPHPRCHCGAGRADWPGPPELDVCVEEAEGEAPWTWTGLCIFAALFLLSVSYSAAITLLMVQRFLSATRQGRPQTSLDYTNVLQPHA
- Test Description: In vitro FRET assay: inhibition of binding of IgE-Tb to receptor FcεR1α-Y131A-AF488
- Test Context: read-out: FRET IC50 range
Parameter: IC50

Consider the following illustrative entries.
Compound: CC(C)(F)CNS(=O)(=O)c1cc2c(c3cnc(C4CC4)cc13)CC[C@H]2n1ccnc1NCC1CC1 (single isomer, unassigned)
IC50: 100 to 2000 nM
//
Compound: CC(C)(F)CNS(=O)(=O)c1cc2c(c3cnc(C4CC4)cc13)CC[C@@H]2NC(=O)c1cccnc1 (single isomer, unassigned)
IC50: 100 to 2000 nM
//
Compound: CC(C)(F)CNS(=O)(=O)c1cc2c(c3cnc(C4CC4)cc13)C(Nc1cncnc1)CC2 (stereo not shown)
IC50: 50 to 100 nM
//
Compound: CNC(=O)[C@H]1CCCN1[C@@H]1CCc2c1cc(S(=O)(=O)NCC(C)(C)F)c1cc(C3CC3)ncc21 (relative stereo)
IC50: 100 to 2000 nM
//
Compound: CCNC1=NS(=O)(=O)N=C1NC1CCc2cc(S(=O)(=O)NCC(C)C)c3cc(C4CC4)ncc3c21 (stereo not shown)
IC50: 100 to 2000 nM

**Q:** Item CC(C)CNS(=O)(=O)c1cc2c(c3nnc(C4CC4)cc13)CCC2 has what recorded IC50?
**A:** 50 to 100 nM

**Q:** Item [2H]C([2H])(NS(=O)(=O)c1cc2c(c3cnc(C4CC4)cc13)CCC2N)C(C)C (stereo not shown) has what recorded IC50?
**A:** 100 to 2000 nM
